Would you mind telling me the reported log10 IC50 of each entry?
- ASSAY_TARGET: NHE-1 subtype (Homo sapiens)
- Sequence (P19634 whole entry): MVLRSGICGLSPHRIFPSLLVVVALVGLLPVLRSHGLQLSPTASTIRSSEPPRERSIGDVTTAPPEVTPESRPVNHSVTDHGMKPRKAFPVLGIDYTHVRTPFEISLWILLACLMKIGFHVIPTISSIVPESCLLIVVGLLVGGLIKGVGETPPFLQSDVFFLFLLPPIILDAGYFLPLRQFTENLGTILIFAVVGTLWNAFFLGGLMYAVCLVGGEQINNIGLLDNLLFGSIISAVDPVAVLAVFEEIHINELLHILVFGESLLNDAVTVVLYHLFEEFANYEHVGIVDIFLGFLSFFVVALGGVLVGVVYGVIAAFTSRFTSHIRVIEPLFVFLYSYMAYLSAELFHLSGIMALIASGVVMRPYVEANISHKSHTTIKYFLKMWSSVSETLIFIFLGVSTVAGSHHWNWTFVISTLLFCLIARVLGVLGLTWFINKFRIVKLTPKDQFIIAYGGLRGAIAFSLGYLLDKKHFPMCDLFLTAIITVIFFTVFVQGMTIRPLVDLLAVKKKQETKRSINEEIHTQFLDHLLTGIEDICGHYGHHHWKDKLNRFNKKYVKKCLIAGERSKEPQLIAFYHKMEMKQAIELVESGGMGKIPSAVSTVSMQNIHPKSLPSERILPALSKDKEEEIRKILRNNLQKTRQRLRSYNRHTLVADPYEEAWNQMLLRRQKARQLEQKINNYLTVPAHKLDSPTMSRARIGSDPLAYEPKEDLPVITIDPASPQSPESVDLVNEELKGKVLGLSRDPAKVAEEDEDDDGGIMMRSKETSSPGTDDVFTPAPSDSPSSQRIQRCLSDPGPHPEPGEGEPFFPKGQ
- EXPERIMENT_SUMMARY: NHE inhibition FLIPR test (intracellular pH recovery, BCECF) in transfected LAP-1 cells
- TEST_CONTEXT: transfected LAP-1 cell line expressing NHE-1 subtype, pHi recovery after acidification, read-out: IC50 (NHE1)
Counter-ions that a name gives are not always drawn.
// stored as log10 of IC50 expressed in µM

// returns reported log10 IC50 for input Cc1cc(-n2cc(C(=O)N=C(N)N)c3ccccc32)c2ccccc2n1 [Example 8, trifluoroacetate]
-2.14

Moving on to NC(N)=NC(=O)c1cn(-c2ccnc3cc(Cl)ccc23)c2ccccc12 [Example 9, trifluoroacetate]
-0.60

Moving on to Cl.Cn1ccc2c(-n3cc(C(=O)NC(=N)N)c4ccccc43)ncnc21 [Example 7, hydrochloride]
-2.92

Moving on to Cl.N=C(N)NC(=O)c1cn(-c2ccnc3cc(C(F)(F)F)ccc23)c2ccccc12 [Example 3, hydrochloride]
-0.60

Moving on to NC(N)=NC(=O)c1cn(-c2ccnc3c(F)cccc23)c2ccccc12 [Example 13, trifluoroacetate]
-2.60

Moving on to Cl.N=C(N)NC(=O)c1cn(-c2ccnc3c(C(F)(F)F)cccc23)c2ccccc12 [Example 4, hydrochloride]
0.17

Moving on to COc1ccc2c(c1)c(C(=O)N=C(N)N)c(C)n2-c1ncnc2ccc(Cl)cc12 [Example 14, trifluoroacetate]
0.41

Moving on to COc1ccc2nccc(-n3cc(C(=O)NC(=N)N)c4ccccc43)c2c1.Cl [Example 5, hydrochloride]
-0.92

Moving on to Cl.N=C(N)NC(=O)c1cn(-c2cc(C(F)(F)F)nc3ccccc23)c2ccccc12 [Example 1, hydrochloride]
0.37

Moving on to Cl.N=C(N)NC(=O)c1cn(-c2ccnc3ccc(C(F)(F)F)cc23)c2ccccc12 [Example 2, hydrochloride]
-0.66

Moving on to NC(N)=NC(=O)c1cn(-c2ccnc3ccc(F)cc23)c2ccccc12 [Example 11, trifluoroacetate]
-2.00

Moving on to COc1ccc2c(-n3cc(C(=O)NC(=N)N)c4ccccc43)ccnc2c1.Cl [Example 6, hydrochloride]
-0.62

Moving on to COc1ccc2c(c1)c(C(=O)N=C(N)N)c(C)n2-c1ccnc2ccc(F)cc12 [Example 12, trifluoroacetate]
0.42

Moving on to COc1ccc2c(c1)c(C(=O)N=C(N)N)c(C)n2-c1ccnc2cc(Cl)ccc12 [Example 10, trifluoroacetate]
0.51
